- MEASURED_ON: ERK1 (Homo sapiens, UniProt P27361)
- Construct: purchased Jubilant Biosys
- Sequence (P27361 whole entry): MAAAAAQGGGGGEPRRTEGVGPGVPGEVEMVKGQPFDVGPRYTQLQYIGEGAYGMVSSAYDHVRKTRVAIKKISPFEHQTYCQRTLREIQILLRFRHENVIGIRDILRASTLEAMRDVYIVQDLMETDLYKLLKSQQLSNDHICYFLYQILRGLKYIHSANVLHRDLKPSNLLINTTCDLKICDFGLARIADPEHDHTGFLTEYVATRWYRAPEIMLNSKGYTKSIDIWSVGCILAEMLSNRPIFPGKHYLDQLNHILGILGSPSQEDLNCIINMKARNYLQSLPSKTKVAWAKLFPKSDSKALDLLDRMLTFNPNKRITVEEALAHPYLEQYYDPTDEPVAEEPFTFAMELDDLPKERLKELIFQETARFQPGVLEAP
- ASSAY_TEXT: ERK1 HTRF (biochemical) assay
- MEASUREMENT_CONTEXT: HTRF
MEASUREMENT_NAME: IC50

Please review the following examples before continuing.
COMPOUND	MEASURED_ON	IC50
Cc1cnc(N[C@H]2CCOC2)nc1-n1cnc(C(=O)N[C@H](CN)c2cccc(Cl)c2)c1 [Example 255]	ERK1 (Homo sapiens, UniProt P27361)	< 50 nM
Cc1cnc(NC2CCOCC2)nc1-n1cnc(C(=O)NCc2ccccc2C(C)(C)O)c1 [Example 293]	ERK1 (Homo sapiens, UniProt P27361)	< 50 nM

# ---- query compound ----
Incoming: Query: IC50; subject: Cc1cnc(Nc2ccc(F)cc2Cl)cc1-n1ccc(C(=O)NC(CO)c2ccccc2)c1 (stereo not drawn) [Compound 78]
Outgoing: < 50 nM

---

- MEASURED_ON: ERK1 (Homo sapiens)
- Construct: purchased Jubilant Biosys
- ASSAY_TEXT: ERK1 HTRF (biochemical) assay
- MEASUREMENT_CONTEXT: HTRF
MEASUREMENT_NAME: IC50

MOLECULE	IC50
O=C(N[C@H](CO)c1cccc(Cl)c1)c1cn(-c2ccnc(Nc3ccccc3)c2)cn1 [Compound 72]	< 50 nM

Incoming: Query: IC50; subject: Cc1cccc(C(CO)NC(=O)c2ccn(-c3nc(N[C@H]4CCOC4)ncc3C)c2)c1 (stereo partly drawn) [Compound 187]
Outgoing: < 50 nM

Incoming: Query: IC50; subject: Cc1cnc(Nc2ccc3c(c2)CCO3)nc1-n1ccc(C(=O)NC(CO)c2cccc(Cl)c2)c1 (stereo not drawn) [Compound 137]
Outgoing: < 50 nM

---

- MEASURED_ON: ERK2 (Homo sapiens)
- Construct: purchased Jubilant Biosys
- Sequence (P28482 whole entry): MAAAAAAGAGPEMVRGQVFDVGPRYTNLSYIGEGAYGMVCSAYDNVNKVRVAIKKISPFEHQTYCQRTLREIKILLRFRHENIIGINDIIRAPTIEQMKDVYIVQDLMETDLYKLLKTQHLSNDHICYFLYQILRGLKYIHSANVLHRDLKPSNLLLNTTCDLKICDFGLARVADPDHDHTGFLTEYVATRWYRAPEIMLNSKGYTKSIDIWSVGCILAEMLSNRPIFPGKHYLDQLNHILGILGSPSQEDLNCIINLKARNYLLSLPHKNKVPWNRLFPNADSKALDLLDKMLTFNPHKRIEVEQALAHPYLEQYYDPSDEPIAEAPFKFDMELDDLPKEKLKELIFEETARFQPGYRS
- ASSAY_TEXT: ERK2 HTRF (biochemical) assay
- MEASUREMENT_CONTEXT: HTRF
MEASUREMENT_NAME: IC50

Please review the following examples before continuing.
COMPOUND	MEASUREMENT_NAME	RESULT
O=C(N[C@H](CO)c1cccc(Cl)c1)c1ccn(-c2ccnc(Nc3ccc(F)cc3Cl)n2)c1 [Compound 112]	IC50	≤ 50 nM
Cc1cnc(Nc2ccc3occc3c2)nc1-n1cnc(C(=O)NC(CO)c2cccc(Cl)c2)c1 (stereo not shown) [Compound 132]	IC50	≤ 50 nM
Cc1c(NC(=O)N[C@H](CO)c2cccc(Cl)c2)cnn1-c1ccnc(Nc2ccccc2Cl)n1 [Compound 11]	IC50	> 2500 nM

# ---- query compound ----
Incoming: Query: IC50; subject: Cc1cnc(Nc2ccc(F)cc2)nc1-n1cnc(C(=O)NC(CO)c2cccc(Cl)c2)c1 (stereo not shown) [Compound 155]
Outgoing: ≤ 50 nM

---

- MEASURED_ON: ERK2 (Homo sapiens)
- Construct: purchased Jubilant Biosys
- ASSAY_TEXT: ERK2 HTRF (biochemical) assay
- MEASUREMENT_CONTEXT: HTRF
# Lookup of reported IC50 keyed by entry

Please review the following examples before continuing.
COMPOUND	IC50
COC[C@@H](NC(=O)c1ccn(-c2nc(Nc3ccc4c(c3)OCO4)ncc2C)c1)c1ccccc1	≤ 50 nM
Cc1cnc(Nc2ccnn2C)nc1-n1cnc(C(=O)N[C@H](CN)c2cccc(Cl)c2)c1	≤ 50 nM
Cc1cnc(NC2CCN(C)CC2)nc1-n1cnc(C(=O)N[C@H](CO)c2cccc(Cl)c2)c1	≤ 50 nM
Cc1cnc(Nc2ccc3c(c2)OC(F)(F)O3)nc1-n1ccc(C(=O)N[C@H](CO)c2ccc(F)c(Cl)c2)c1	≤ 50 nM
COc1ccc(Nc2ncc(C)c(-n3ccc(C(=O)NC(CO)c4cccc(Cl)c4)c3)n2)cc1OCCCN(C)C (stereo not drawn)	≤ 50 nM

Incoming: Query: IC50; subject: Cc1cnc(Nc2ccc3c(c2)CCCO3)nc1-n1ccc(C(=O)NC(CO)c2ccccc2)c1 (stereo not drawn)
Outgoing: ≤ 50 nM

Incoming: Query: IC50; subject: O=C(NC(CO)c1cccc(Cl)c1)c1ccn(-c2cc(Nc3ccccc3)ncc2Cl)c1 (stereo not drawn)
Outgoing: ≤ 50 nM

Incoming: Query: IC50; subject: Cc1cccc(C(CO)NC(=O)c2cn(-c3nc(NC4CCOCC4)ncc3C)cn2)c1 (stereo not drawn)
Outgoing: ≤ 50 nM

Incoming: Query: IC50; subject: Cc1cnc(Nc2ccc(N3CCNCC3)cc2)nc1-n1ccc(C(=O)NC(CO)c2ccccc2)c1 (stereo not drawn)
Outgoing: ≤ 50 nM

Incoming: Query: IC50; subject: Cc1cnc(Nc2ccc(F)cc2)cc1-n1cnc(C(=O)NC(CO)c2ccccc2)c1 (stereo not drawn)
Outgoing: 50 to 100 nM

Incoming: Query: IC50; subject: Cc1cnc(Nc2cccnc2)cc1-n1ccc(C(=O)NC(CO)c2ccc(F)c(Cl)c2)c1 (stereo not drawn)
Outgoing: ≤ 50 nM

Incoming: Query: IC50; subject: Cc1cnc(NC2CCOC2)nc1-n1ccc(C(=O)NC(CO)c2cccc(Cl)c2)c1 (stereo not drawn)
Outgoing: ≤ 50 nM

Incoming: Query: IC50; subject: Cc1cnc(Nc2ccc(F)c(N3CCOCC3)c2)nc1-n1cnc(C(=O)NC(CO)c2cccc(Cl)c2)c1 (stereo not drawn)
Outgoing: ≤ 50 nM

Incoming: Query: IC50; subject: CCNc1ncc(C)c(-n2ccc(C(=O)NC(CO)c3ccccc3)c2)n1 (stereo not drawn)
Outgoing: 100 to 500 nM

Incoming: Query: IC50; subject: COc1cc(Nc2ncc(C)c(-n3ccc(C(=O)NC(CO)c4ccccc4)c3)n2)ccc1F (stereo not drawn)
Outgoing: ≤ 50 nM

Incoming: Query: IC50; subject: Cc1cnc(Nc2ccc3c(c2)OCO3)nc1-n1ccc(C(=O)NC(CO)c2cccnc2)c1 (stereo not drawn)
Outgoing: ≤ 50 nM

Incoming: Query: IC50; subject: O=C(NC(CO)c1cccc(Cl)c1)c1ccn(-c2ccnc(NC3CCNC3)c2)c1 (stereo not drawn)
Outgoing: 500 to 2500 nM

Incoming: Query: IC50; subject: Cc1cnc(NC2CCOCC2)nc1-n1cnc(C(=O)NCc2sccc2CO)c1
Outgoing: ≤ 50 nM

---

- MEASURED_ON: ERK1 (Homo sapiens)
- Construct: purchased Jubilant Biosys
- ASSAY_TEXT: ERK1 HTRF (biochemical) assay
- MEASUREMENT_CONTEXT: HTRF
pIC50: −log10 of the molar value.
MEASUREMENT_NAME: pIC50

Please review the following examples before continuing.
COMPOUND	MEASUREMENT_NAME	RESULT
C#Cc1cccc(Nc2nccc(-n3cc(NC(=O)N[C@H](CO)c4cccc(Cl)c4)cn3)n2)c1	pIC50	> 7.30
CNC(=O)c1ccc(Nc2ncc(C)c(-n3ccc(C(=O)NC(CO)c4cccc(Cl)c4)c3)n2)cc1 (stereo not drawn)	pIC50	> 7.30
Cc1cnc(Nc2ccc3c(c2)OC(F)(F)O3)cc1-n1cnc(C(=O)NC(CO)c2cccc(Cl)c2)c1 (stereo not drawn)	pIC50	6.30 to 7.00
CC[C@H](CO)Nc1cc(-n2cnc(C(=O)NC(CO)c3cccc(Cl)c3)c2)c(Cl)cn1 (stereo partly drawn)	pIC50	> 7.30
CC[C@@H](CO)Nc1ncc(C)c(-n2ccc(C(=O)NC(CO)c3ccccc3)c2)n1 (stereo partly drawn)	pIC50	> 7.30

# ---- query compound ----
Incoming: Query: pIC50; subject: NCC(NC(=O)c1ccn(-c2ccnc(Nc3ccc(F)cc3)c2)c1)c1ccccc1 (stereo not drawn)
Outgoing: > 7.30

---

- MEASURED_ON: ERK2 (Homo sapiens)
- Construct: purchased Jubilant Biosys
- ASSAY_TEXT: ERK2 HTRF (biochemical) assay
- MEASUREMENT_CONTEXT: HTRF
pIC50: −log10 of the molar value.
MEASUREMENT_NAME: pIC50

COMPOUND	MEASURED_ON	pIC50
Cc1cn(-c2nc(Nc3ccc(F)cc3)ncc2C)cc1C(=O)NC(CO)c1cccc(Cl)c1 (centres unmarked)	ERK2 (Homo sapiens)	≥ 7.30
Cc1cnc(NC2CCOCC2)nc1-n1cnc(C(=O)NC(CO)c2cccs2)c1 (centres unmarked)	ERK2 (Homo sapiens)	≥ 7.30
Cc1cnc(Nc2ccc(F)cc2)nc1-n1cnc(C(=O)N[C@@H](CN)c2cccc(Cl)c2)c1	ERK2 (Homo sapiens)	6.30 to 7.00
Cc1cnc(Nc2ccc3c(c2)CC(=O)N3)nc1-n1ccc(C(=O)NC(CO)c2cccc(Cl)c2)c1 (centres unmarked)	ERK2 (Homo sapiens)	≥ 7.30
Cc1cnc(Nc2ccc3c(c2)OCC3)nc1-n1ccc(C(=O)NC(CO)c2ccccc2)c1 (centres unmarked)	ERK2 (Homo sapiens)	≥ 7.30
Cc1cnc(Nc2ccc(F)cc2Cl)nc1-n1ccc(C(=O)NC(CO)c2cccc(Cl)c2)c1 (centres unmarked)	ERK2 (Homo sapiens)	≥ 7.30
Cc1cnc(NC2COC2)nc1-n1cnc(C(=O)N[C@H](CN)c2cccc(Cl)c2)c1	ERK2 (Homo sapiens)	≥ 7.30

# ---- query compound ----
Incoming: Checklist item: pIC50 tested on ERK2 (Homo sapiens), entry Cc1cnc(Nc2ccccc2Cl)nc1-n1cc(NC(=O)N[C@@H](CO)c2cccc(Cl)c2)cn1 , value?
Outgoing: 5.60 to 6.30
